Target: GHSR-1a (HEK293/GHSR1a cell line) (Homo sapiens)
Construct: expressed in transfected cells; host or cells: HEK293/GHSR1a cell line
Sequence (Q92847 whole entry): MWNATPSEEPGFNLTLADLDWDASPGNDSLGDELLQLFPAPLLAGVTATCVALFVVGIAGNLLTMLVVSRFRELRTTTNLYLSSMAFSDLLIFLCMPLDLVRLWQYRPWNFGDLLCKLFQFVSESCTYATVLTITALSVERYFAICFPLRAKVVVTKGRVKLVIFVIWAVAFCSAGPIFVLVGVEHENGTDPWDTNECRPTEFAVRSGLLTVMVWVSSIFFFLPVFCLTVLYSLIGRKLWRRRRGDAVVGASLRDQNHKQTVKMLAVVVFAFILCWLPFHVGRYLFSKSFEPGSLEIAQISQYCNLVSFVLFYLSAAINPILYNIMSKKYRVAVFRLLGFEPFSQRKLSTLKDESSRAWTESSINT
Assay: Ghrelin antagonist potency (IC50) with calcium FLIPR assay, ghrelin 10 nM
Assay type: cell-based
Details: HEK293/GHSR1a, ghrelin 10 nM, read-out: Activity IC50 (ghrelin antagonist potency)
assayEndpoint: pIC50
Worth noting: pIC50 values are minus log10 of concentrations stated in mol/L.

{"molecule": "C[C@H](NC(=O)Nc1ccc(S(=O)(=O)Cc2ccc3c(c2)CN(C)CC3)cc1)c1ccccc1 [H1311]", "pIC50": 6.97}
{"molecule": "COc1ccccc1C(C)NC(=O)Nc1ccc(S(=O)(=O)Cc2ccc3c(c2)CNC3)cc1F.Cl (stereo not drawn) [H1390]", "pIC50": 7.44}
{"molecule": "CC(NC(=O)Nc1ccc(S(=O)(=O)Cc2ccc3c(c2)CN(C)C3)cc1)c1ccc2c(c1)OCO2 (stereo not drawn) [H1453]", "pIC50": 6.96}

QUERY: What pIC50 value was documented for this molecule, COc1cc2c(cc1CS(=O)(=O)c1ccc(NC(=O)NC(C)c3cccc(Cl)c3Cl)cc1)CCNC2 (stereo not drawn) [H1392] ?
RESULT: 7.01

QUERY: Any idea what pIC50 was measured for COc1cc(S(=O)(=O)Cc2ccc3c(c2)CCN(C)C3)ccc1NC(=O)NC(C)c1ccccc1 (stereo not drawn) [H1387] ?
RESULT: 8.13

QUERY: Find the recorded pIC50 belonging to C[C@@H](NC(=O)Nc1ccc(S(=O)(=O)Nc2ccc3c(c2)CN(C)C3)cc1)c1ccccc1 [H1337] and report it.
RESULT: 7.62

QUERY: Request the reported pIC50 associated with CN1Cc2ccc(CS(=O)(=O)c3ccc(NC(=O)NC4CCCc5ccccc54)cc3)cc2C1 (stereo not drawn) [H1312]
RESULT: 7.16

QUERY: Request the reported pIC50 associated with COc1cc(S(=O)(=O)Cc2ccc3c(c2)CN(C)C3)ccc1NC(=O)NC(C)c1c(F)cccc1F (stereo not drawn) [H1437]
RESULT: 7.61

QUERY: Which pIC50 value is on record for CC(c1ccccc1)N1Cc2cc(S(=O)(=O)Cc3ccc4c(c3)CNC4)ccc2NC1=O (stereo not drawn) [H1395] ?
RESULT: 7.16

* * *

Metabolic Stability Study H = human by entry:
Assay: Metabolic stability in human liver microsomes
Assay type: in vitro ADME
Value expressed in µL/min/mg; do not type the unit.

{"compound": "C[C@H](NC(=O)Nc1ccc(S(=O)(=O)N(C)c2ccc(CC(C)(C)N)cc2)cc1)c1cccc(Cl)c1Cl.Cl", "assayEndpoint": "Metabolic Stability Study H = human", "endpointResult": 31.9}
{"compound": "CC(NC(=O)Nc1ccc(S(=O)(=O)Cc2ccc3c(c2)CNC3)cc1-c1cc[nH]n1)c1ccccc1 (stereo not drawn)", "assayEndpoint": "Metabolic Stability Study H = human", "endpointResult": 47.3}
{"compound": "CC(NC(=O)Nc1ccc(S(=O)(=O)Cc2ccc3c(c2)CNC3)cc1)c1ccccc1.Cl (stereo not drawn)", "assayEndpoint": "Metabolic Stability Study H = human", "endpointResult": 22.2}
{"compound": "CC(NC(=O)Nc1ccc(S(=O)(=O)Cc2cc3c(s2)CN(C)C3)cc1)c1ccccc1 (stereo not drawn)", "assayEndpoint": "Metabolic Stability Study H = human", "endpointResult": 85.3}

QUERY: Request the reported Metabolic Stability Study H = human associated with CC(NC(=O)Nc1ccc(S(=O)(=O)Cc2ccc3c(c2)CN(C2CCOC2)C3)cc1)c1ccccc1.O=C(O)C(F)(F)F (stereo not drawn)
RESULT: 282.4
